This section presents sequences with their documented apparent Kd values.
# System: MS2 coat protein
# assay: apparent Kd, MS2 coat protein; higher = weaker binding; RNA-MaP array; theophylline 2 mM where present
# settings: ligand present: theophylline; designed as: OFF switch for theophylline

seq string	target desc	apparent Kd
AUUAAUUGUCGUGAUACCAGACUUACAUGAGGAUCACCCAUGUUACUUAAGAUUUUUGUUGUCCCUUGGCAGCACUUUUUAAUUA	MS2 coat protein	18.9 nM
GGUCUCUGGAGCGAUACCAGCUUGAGUGUACUGGCCAGGUACAUGAGGAUCACCCAUGUAAGCCCUUGGCAGCGCUGCAGAGACC	MS2 coat protein	29.1 nM
UAUAUAUUGAUGGAUACCAGCAGAGAAAACGUUUAUCCUAACAUGAGGAUCACCCAUGUAUGCCCUUGGCAGCUGUUGAUAUAUA	MS2 coat protein	32.6 nM
AAACAUGACAUGGAUACCAGACACAUGAGGAUCACCCAUGUUGAGGAUCACCCAUGUCCCGUCCCUUGGCAGCCAGCAUGAGGAU	MS2 coat protein	10.2 nM
AAGGUAUCACAGACAUGGGUGUACUGUGAUACCAGCUAGGAAACUAGCCCUUGGCAGCACAUGAGGAUCACCCAUGUAAGAAUAA	MS2 coat protein	141 nM
AAACGUUGCUGCGAUACCAGACAUGAGGAUCACCCAUGUACCAAGGUACGAAAAUAACAUGUCCCUUGGCAGCGCAGCAACGAAA	MS2 coat protein	336 nM
AUACCGAGUGAGUCGUGUUUCUUUUCAGAUACCAGACUUUUCGUUGUCCCUUGGCAGCUGUUUUACAUGAGGAUCACCCAUGUUG	MS2 coat protein	25.5 nM
UGGUCACUAGGAGAUACCAGCCGACAUGAGGAUCACCCAUGUAACCGGCGUCCUCCCUUAGGCCCUUGGCAGCUCGUAGUUGCUC	MS2 coat protein	156 nM
CUCGGGUUAUCAGAUACCAGACUAAAAUUUACAUGAGGAUCACCCAUGUAAUGGGUGAUAGUCCCUUGGCAGCUGUUAUGUUUAA	MS2 coat protein	119 nM
AAAACACAUGAGGAUCACCCAUGUCGUGAUACCAGUCAACAUGAGGACCCUUGGCAGCAUAAAAUGGGUAACAUGAGGAUCACCC	MS2 coat protein	133 nM
UACAUGAGGAUCACCCAUGUAUGAAUAGAUACCAGAUAAAAUAAGGUCCCUUGGCAGCUAGUGAAUCGAGGGUGGGUAUCAUGAU	MS2 coat protein	10.8 nM
AAUGGCGUUGGUGAGGCGGUUAAUGGCGAUACCAGCGUGGAAACACGCCCUUGGCAGCGCCAAAACAUGAGGAUCACCCAUGUUA	MS2 coat protein	139 nM
UAUAUAUAUAUUGAUACCAGCAGAGAAAACGUAUAUCCUAACAUGAGGAUCACCCAUGUAUGCCCUUGGCAGCGAUAUAUAUAUA	MS2 coat protein	31.4 nM
UUAUUUAUAAAUGAUACCAGCCGAUUGGCCGCAAAUCCUAACAUGAGGAUCACCCAUGUCGGCCCUUGGCAGCAUUUAUGGGUUU	MS2 coat protein	722 nM

###

# Tested on: MS2 coat protein
# assay: apparent Kd, MS2 coat protein; higher = weaker binding; RNA-MaP array
# settings: designed as: ON switch for theophylline; no ligand
endpoint: apparent Kd (nM)

seq string	value reported
CAGCCACAUGAGGAUCACCCAUGUGAUGAUACCAGCUUCGUCUUAAGCCCUUGGCAGCAUAUCUCUUUGUUCUCAUACAUAGCAU	11.1
CGUCAACAUGAGGAUCACCCAUGUUUCGAUACCAGUGACCCUCUCCACCCUUGGCAGCGAGCGCCCGCGCCUGAUAAAUCUUCUA	12.1
GCUUCACAUGAGGAUCACCCAUGUCCGGAUACCAGCUCUCCAGACAGCCCUUGGCAGCCGAGCGCCCGAUUAUAUACCCUAGGAG	22
UGCGGACAUGAGGAUCACCCAUGUGCGGAUACCAGCAGCCGGCUCUGCCCUUGGCAGCCGCUACCCUUGCACGUUUAACGAUCCA	37.8
CAUUGAGCAGCUGAUACCAGUGCCUGAACUUACAUGAGGAUCACCCAUGUAUGCCCAAAACACCCUUGGCAGCAGAGGAAGAUCG	14.5

###

This section presents sequences with their documented apparent Kd values.
# System: MS2 coat protein
# assay: apparent Kd, MS2 coat protein; higher = weaker binding; RNA-MaP array; theophylline 2 mM where present
# settings: designed as: OFF switch for theophylline; no ligand

seq string	apparent Kd, nM
AAGGUAUCACAGACAUGGGUGUACUGUGAUACCAGCUAGGAAACUAGCCCUUGGCAGCACAUGAGGAUCACCCAUGUAAGAAUAA	47.4
AGCCCUGUACUAGAUACCAGCUACAUGAGGAUCACCCAUGUGCGUCAAGACUGACUGUGUAGCCCUUGGCAGCUGCUCGCAUGUA	22.1
UAUAUAUAUAUUGAUACCAGCAGAGAAAACGUUUAUCCUAACAUGAGGAUCACCCAUGUAUGCCCUUGGCAGCGAUAUAUAUAUA	24.5
AGACAUGAGGAUCACCCAUGUAGUACGGAUACCAGAUCCAGAUGCAUCCCUUGGCAGCUGUGGUACAGCGUUACAUCGCUCGUAG	20
AAAACACAUGAGGAUCACCCAUGUCGUGAUACCAGUCAACAUGAGGACCCUUGGCAGCAUAAAAUGGGUAACAUGAGGAUCACCC	85.1
UAUAUAUAUAUUGAUACCAGCAGAGAAAACGUAUAUCCUAACAUGAGGAUCACCCAUGUAUGCCCUUGGCAGCGAUAUAUAUAUA	24.3
AGAAUAACACAUGAGGAUCACCCAUGUGAUACCAGCUAGGAAACUAGCCCUUGGCAGCACAUAAUCCUCAUGAGCUGCCAUAAUA	12.8

###

# Test system: MS2 coat protein
# assay: apparent Kd, MS2 coat protein; higher = weaker binding; RNA-MaP array; FMN 200 µM where present
# settings: designed as: OFF switch for flavin mononucleotide; no ligand
Grouping rule (apparent Kd): lo = under 20 nM, mid = from 20 nM up to 40 nM, hi = 40 nM and over

seq string	assigned category
AUUUCGUUAUCAGGAUAUGGACAGGCCUGUCCGUAUUGAGACAGUAACAUGAGGAUCACCCAUGUCCAGAAGGGAUCGAAGUAU	hi
CUCUCUGAUCGAGGAUAUCGAGCUUCCGCCCUUCGAGAAGGCGACAUGAGGAUCACCCAUGUAAGGAGGACACUCACUCACACG	mid
UGCAUGGUAGGAUAUACGGAGCAUUAGGGUUUGUUAUGUGGACAUGAGGAUCACCCAUGUAGAAGGGCCGUGCU	mid
AUUUAGAGAGGAUAUAUUAUGUGAAACAUGAGGAUCACCCAUGUAAUAUGAUGGAUAUAAAUAGAAGGCUCAUUUA	mid
UUUUAGUCAGGAUAUCGUUAAUUUAAUUGUUUGUAUUAGUUCGAGAAGGGACAUGAGGAUCACCCAUGUAUUUU	mid
CUUUUGUGAGGAUAUCAUUAGUAAAUAAAUAAAAUUACUACUGAGAAGGCACAUGAGGAUCACCCAUGUUCCUC	mid
UUUAUGUCAGGAUAUUCGGAUAGGAAAACGAAAACCUAUCCGAAGAAGGGACAUGAGGAUCACCCAUGUAAAAA	hi
CUCGGCGAGGGAGGAUAUCCCUAUGAGGCGGUGCAGCUCGGGAACAUGAGGAUCACCCAUGUAGCGGAGAAGGCCCAUACGCCU	lo
UCUGCCGCCGUGAGGAUAUGCCCAAAUAAAAGCGGGCAGAAGGCACAUGAGGAUCACCCAUGUCCCGCGGUUUU	lo
AAACCUAUAGGAUAUACAUGAGGAUCACCCAUGUUGCGAUUUUUUAGGUAACAGAUCCGUAGAAGGGUAGGUCA	mid
CUGUUAUAGGUCCAUUUUUACAACAUGAGGAUCACCCAUGUGCAGGAUAUCGUGUUAAUUUUCAUCGAGAAGGGCAUAGUCACG	mid
AGCGGCGCGGGCCACCGCAAAACCAGAAGGACAUGAGGAUCACCCAUGUAACAAAACAGGGCGGUGUAGGAUAUGGCAGACCCA	lo
GGUGCGUGUAAAGGAUAUAUGUACUGAGAGGACAUAGAAGGUUACAUGAGGAUCACCCAUGUAGGAAGCGAAAGUUAUCACGUG	lo
AAAAGGUCAGGAUAUACAAAAAAAAAAAAAAAAAAAAAAAAGUAGAAGGGACAUGAGGAUCACCCAUGUGAAAA	hi
AAAAGGUGAGGAUAUACAUGAGGAUCACCCAUGUAGAAAGGAAGUGUAAAAAAAAAGUGUAGAAGGCAUCAUGA	hi
UUGAUAAGGAGAGGAUAUGGACAUGAGGAUCACCCAUGUACAUGGGAAUAUUUACUGAAUUCUUACUAGAAGGCUUACAUAUUU	lo
CCAUGGCAUGUAGGAUAUAUCUGACAAAGUCAGAUAGAAGGACAUGAGGAUCACCCAUGUAAACCGAAAGGAACAUAGCCAUGG	lo
CGAUAUAUGAAGGACGGAAACGUACAUGAGGAUCACCCAUGUAGAAGGCGAUCCGCAACGCGGAUCGAGGAUAUAUAGUAUACA	mid
AAUGUUGUUGUGAGGAUAUCGUAGUUAUUUUGAAACGAGAAGGCACAUGAGGAUCACCCAUGUUUGUUGAUGGU	mid
UAAUGUAUAUAGGAUAUCUAGCUGGAUACAGCUAGAGAAGGAUGUACAUGAGGAUCACCCAUGUAAAUCGAUCA	mid
AAUUCACAUGAGGAUCACCCAUGUCAGGAUAUGCUGACGCGGGUUUCGGUGCGUGUUGGCAGAAGGGACAGCUA	hi
UCCUUGUCCUGAGGAUAUCCGUGGUUACCGAAAGGAGAAGGCAGGACAUGAGGAUCACCCAUGUACCCAGAAAACGUGCAGAGA	hi
UCGCUGCGAGGAUAUACAUGAGGAUCACCCAUGUACGGGUCCGGGUUUGAGUUGAUGAGUAGAAGGCGCAGUGA	hi
GAUCAACAUGAGGAUCACCCAUGUGAGGAUAUGAUACUAUGUACUUCGGUACAUAGUAUCAGAAGGCAUAUAAA	hi
CGGGUCUGAGGAUAUCCAUCCUCAUACAUGAGGAUCACCCAUGUUCACCCUUGGGUUCCCGGAGAAGGCAGUUUUC	hi
GCUAUAGAUGUAGGAUAUCAUAUAGAAGCUAUGUGAGAAGGACAUGAGGAUCACCCAUGUCAAUGGCUGGAGCGAAGUUAUGGC	mid
AGGAGUACAGGAUAUACAUGAGGAUCACCCAUGUGAGAAUUAAGUGGCGUACCACAAAGUAGAAGGGUACUCCA	hi
GGUUACAAGUAAGGAUAUGCAUAUGAAACAUAUGCAGAAGGUACAUGAGGAUCACCCAUGUUAUUGCAAAGCGAAUAAGUAACC	lo
